// data source = patent US20070128217A1

- Tested on: antibodies in sera from SARS patients (sera 1a, 1b, 2, 6, 37, 62, London, SARS-yellow, SARS-green)
- Format: binding, human
- Design: unit not given here
sequences and their reported Binding of serum SARS-green to looped/cyclic peptides of protein N of SARS-CoV Urbani
assay_endpoint: Binding of serum SARS-green to looped/cyclic peptides of protein N of SARS-CoV Urbani

>>> endpoint_result("KSAAEASKKPRQKRT")
0.1
>>> endpoint_result("SKKPRQKRTATKQYN")
0.1
>>> endpoint_result("GPTDSTDNNQNGGRN")
1.4
>>> endpoint_result("PRGQGVPINTNSGPD")
0.1
>>> endpoint_result("ASKKPRQKRTATKQY")
0.1
>>> endpoint_result("DNGPQSNQRSAPRIT")
0.2
>>> endpoint_result("QIGYYRRATRRVRGG")
0.4
>>> endpoint_result("LLDRLNQLESKVSGK")
0.0
>>> endpoint_result("QPTVTLLPAADMDDF")
0.4

====

- Tested on: rabbit serum obtained by immunizing a rabbit with the SARS-CoV strain Frankfurt 1
- Format: binding
- Design: unit not given here
assay_endpoint: Binding of a rabbit serum to linear peptides

>>> endpoint_result("KVTAFQHQNSKKTTK")
0.6
>>> endpoint_result("STNLCTHSFRKKQVR")
0.7
>>> endpoint_result("TDTIVVTEGDGISTP")
0.1
>>> endpoint_result("ICNLLLLFVTIYSHL")
0.2
>>> endpoint_result("IYSHLLLVAAGMEAQ")
0.1
>>> endpoint_result("LLLLFVTIYSHLLLV")
0.1
>>> endpoint_result("LKTMSLYMAISPKFT")
0.1
>>> endpoint_result("PTTLFAGTHITMTTV")
0.8
>>> endpoint_result("YYQLESTQITTDTGI")
0.1

====

Measured Binding of serum SARS-green to looped/cyclic peptide (PEPSCAN-ELISA) values are reported for all entries that follow.
- Tested on: antibodies in sera from SARS patients (sera 1a, 1b, 2, 6, 37, 62, London, SARS-yellow, SARS-green)
- Assay type: binding, human
assay_endpoint: Binding of serum SARS-green to looped/cyclic peptide (PEPSCAN-ELISA)

>>> endpoint_result("TIPLQASLPFGWLVI")
0.4
>>> endpoint_result("ALNKRWQLALYKGFQ")
0.4
>>> endpoint_result("KNPLLYDANYFVCWH")
0.3
>>> endpoint_result("ATIPLQASLPFGWLV")
0.4
>>> endpoint_result("AAGMEAQFLYLYALI")
0.3
>>> endpoint_result("FGWLVIGVAFLAVFQ")
0.4
>>> endpoint_result("FVTIYSHLLLVAAGM")
0.2
>>> endpoint_result("AVFQSATKIIALNKR")
0.2
>>> endpoint_result("LLLFVTIYSHLLLVA")
0.2
>>> endpoint_result("QASLPFGWLVIGVAF")
0.2
>>> endpoint_result("FLAVFQSATKIIALN")
0.3
>>> endpoint_result("ICNLLLLFVTIYSHL")
0.2
>>> endpoint_result("ALIYFLQCINACRII")
0.3
>>> endpoint_result("GVAFLAVFQSATKII")
0.3
>>> endpoint_result("YSHLLLVAAGMEAQF")
0.5
>>> endpoint_result("PFGWLVIGVAFLAVF")
0.4

====

- Tested on: antibodies in sera from SARS patients (sera 1a, 1b, 2, 6, 37, 62, London, SARS-yellow, SARS-green)
- Format: binding, human
assay_endpoint: Binding of serum London to looped/cyclic peptides of protein X5 of SARS-CoV Urbani

>>> endpoint_result("DPAGGALIARCWYLH")
0.2
>>> endpoint_result("VQTCTPNVTINCQDP")
0.3
>>> endpoint_result("CALGKVLPFHRWHTM")
0.2
>>> endpoint_result("KILVRYNTRGNTYST")
0.3
>>> endpoint_result("YSTAWLCALGKVLPF")
0.4
>>> endpoint_result("YNTRGNTYSTAWLCA")
0.2
>>> endpoint_result("GKVLPFHRWHTMVQT")
0.3
>>> endpoint_result("CTPNVTINCQDPAGG")
0.2
